Assignment: determine reported viability, T/C for the given compounds.
- Tested on: 624824-186-R-J2-PDC multicell spheroids, viability
- experimental details: Anticancer human tumor 624824-186-R-J2-PDC patient-derived colon adenocarcinoma cell line growth inhibition [PI3K]
- assay context: second compound 0.1 µM; first compound 0.316 µM; stronger effect = lower value

>  <compound>
CC(Cn1ccc(-c2ccc(C#N)c(Cl)c2)n1)NC(=O)c1cc(C(C)O)[nH]n1 (stereo not drawn) + CC(Nc1ccc2c(c1)OCCn1cc(N3C(=O)OCC3C(F)F)nc1-2)C(N)=O

>  <viability, T/C>
76.9%

$$$$

Can you give me viability, T/C for all of these, one by one?
1. CC(C)NCC(C(=O)N1CCN(c2ncnc3c2C(C)CC3O)CC1)c1ccc(Cl)cc1 (stereo not drawn) + CC(Nc1ncnc2nc[nH]c12)c1cc2cccc(Cl)c2c(=O)n1-c1ccccc1
2. C#Cc1c(F)ccc2cc(O)cc(-c3ncc4c(N5CC6CCC(C5)N6)nc(OCC56CCCN5CC(F)C6)nc4c3F)c12 (stereo not drawn) + CC(Nc1ncnc2nc[nH]c12)c1cc2cccc(Cl)c2c(=O)n1-c1ccccc1

**Result**
88.4%
76%

---

Could you please report measured viability, T/C for the items listed next?
- Tested on: 624824-186-R-J2-PDC multicell spheroids, viability
- experimental details: Anticancer human tumor 624824-186-R-J2-PDC cell line growth inhibition [PI3K];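 further: spheroids exposed to agents for 7 days before viability read; 100% = DMSO vehicle treated spheroids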
- assay context: second compound 1 µM; first compound 3.16 µM; stronger effect = lower value
- Description: Combinatorial screen of targeted agents with the PI3K inhibitors inavolisib, alpelisib, duvelisib, and copanlisib in multi-cell type tumor spheroids A high-throughput screen of multi-cell type tumor spheroids was designed to identify active combinations of targeted small molecules and PI3K pathway inhibitors. […] Compounds. […] If the clinical Cmax for an agent had not been determined, the highest concentration tested was 10 microM. […]
Give bare numbers, in %.

Known results for compounds:
>  <compound>
C=CC(=O)N1CCN(c2nc(=O)n(-c3c(C)ccnc3C(C)C)c3nc(-c4c(O)cccc4F)c(F)cc23)C(C)C1 (stereo not given) + CC(Nc1ccc2c(c1)OCCn1cc(N3C(=O)OCC3C(F)F)nc1-2)C(N)=O

>  <measurement>
85.6

$$$$
>  <compound>
CC1(C)CCC(Nc2ncc(C(F)(F)F)c(-c3c[nH]c4c(P(C)(C)=O)c(C#N)ccc34)n2)CN1 (stereo not given) + CC(Nc1ncnc2nc[nH]c12)c1cc2cccc(Cl)c2c(=O)n1-c1ccccc1

>  <measurement>
57.6

$$$$
>  <compound>
C#Cc1c(F)ccc2cc(O)cc(-c3ncc4c(N5CC6CCC(C5)N6)nc(OCC56CCCN5CC(F)C6)nc4c3F)c12 (stereo not given) + CC(Nc1ncnc2nc[nH]c12)c1cc2cccc(Cl)c2c(=O)n1-c1ccccc1

>  <measurement>
86.3

$$$$
>  <compound>
CCCS(=O)(=O)Nc1ccc(F)c(C(=O)c2c[nH]c3ncc(-c4ccc(Cl)cc4)cc23)c1F + Cc1nc(NC(=O)N2CCCC2C(N)=O)sc1-c1ccnc(C(C)(C)C(F)(F)F)c1

>  <measurement>
75.9

$$$$

Record C#Cc1c(F)ccc2cc(O)cc(-c3ncc4c(N5CC6CCC(C5)N6)nc(OCC56CCCN5CC(F)C6)nc4c3F)c12 (stereo not given) + CC(Nc1ccc2c(c1)OCCn1cc(N3C(=O)OCC3C(F)F)nc1-2)C(N)=O , field viability, T/C: 93.2

---

- System: 624824-186-R-J2-PDC multicell spheroids, viability
- experimental details: Anticancer human tumor 624824-186-R-J2-PDC cell line growth inhibition [PI3K];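 further: spheroids exposed to agents for 7 days before viability read; 100% = DMSO vehicle treated spheroids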
- assay context: second compound 0.1 µM; first compound 0.316 µM; stronger effect = lower value
Give measured viability, T/C for each item. Keep answers brief.
One number for each entry, in %.

Worked examples follow.
>  <compound>
Cn1nccc1Nc1nccc(-c2ccn(C(CO)c3ccc(Cl)c(F)c3)c(=O)c2)n1 (stereo not given) + COc1c(OCCCN2CCOCC2)ccc2c3n(c(=NC(=O)c4cnc(N)nc4)nc12)CCN3

>  <unit>
%

>  <measurement>
39.1

$$$$
>  <compound>
C[C@@H](NC(=O)c1ncnc(N)c1Cl)c1ncc(C(=O)Nc2cc(C(F)(F)F)c(Cl)cn2)s1 + CC(Nc1ncnc2nc[nH]c12)c1cc2cccc(Cl)c2c(=O)n1-c1ccccc1

>  <unit>
%

>  <measurement>
81.1

$$$$
>  <compound>
CC(Cn1ccc(-c2ccc(C#N)c(Cl)c2)n1)NC(=O)c1cc(C(C)O)[nH]n1 (stereo not given) + CC(Nc1ncnc2nc[nH]c12)c1cc2cccc(Cl)c2c(=O)n1-c1ccccc1

>  <unit>
%

>  <measurement>
114

$$$$
>  <compound>
CC1(C)CCC(Nc2ncc(C(F)(F)F)c(-c3c[nH]c4c(P(C)(C)=O)c(C#N)ccc34)n2)CN1 (stereo not given) + COc1c(OCCCN2CCOCC2)ccc2c3n(c(=NC(=O)c4cnc(N)nc4)nc12)CCN3

>  <unit>
%

>  <measurement>
55.1

$$$$

Recorded result, CCN1CCN(Cc2ccc(Nc3ncc(F)c(-c4cc(F)c5nc(C)n(C(C)C)c5c4)n3)nc2)CC1 + Cc1nc(NC(=O)N2CCCC2C(N)=O)sc1-c1ccnc(C(C)(C)C(F)(F)F)c1 , viability, T/C: 87

---

- Test system: 624824-186-R-J2-PDC multicell spheroids, viability
- experimental details: Anticancer human tumor 624824-186-R-J2-PDC cell line growth inhibition [PI3K];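 further: spheroids exposed to agents for 7 days before viability read; 100% = DMSO vehicle treated spheroids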
- assay context: second compound 0.01 µM; first compound 0.316 µM; stronger effect = lower value
- Text: Combinatorial screen of targeted agents with the PI3K inhibitors inavolisib, alpelisib, duvelisib, and copanlisib in multi-cell type tumor spheroids A high-throughput screen of multi-cell type tumor spheroids was designed to identify active combinations of targeted small molecules and PI3K pathway inhibitors. […] Compounds. […] If the clinical Cmax for an agent had not been determined, the highest concentration tested was 10 microM. […]
Threshold check on viability, T/C: strictly below 90% is MET; on or above 90% is NOT MET.

Illustrative cases are given below, each with its answer.
>  <compound>
Cn1ncc(Cl)c1-c1cc(C(=O)NC(CN)Cc2cccc(F)c2)sc1Cl (stereo not given) + COc1c(OCCCN2CCOCC2)ccc2c3n(c(=NC(=O)c4cnc(N)nc4)nc12)CCN3

>  <assay target>
624824-186-R-J2-PDC multicell spheroids, viability

>  <assigned label>
NOT MET

$$$$
>  <compound>
Cn1nccc1Nc1nccc(-c2ccn(C(CO)c3ccc(Cl)c(F)c3)c(=O)c2)n1 (stereo not given) + COc1c(OCCCN2CCOCC2)ccc2c3n(c(=NC(=O)c4cnc(N)nc4)nc12)CCN3

>  <assay target>
624824-186-R-J2-PDC multicell spheroids, viability

>  <assigned label>
MET

$$$$
>  <compound>
CCCS(=O)(=O)Nc1ccc(F)c(C(=O)c2c[nH]c3ncc(-c4ccc(Cl)cc4)cc23)c1F + COc1c(OCCCN2CCOCC2)ccc2c3n(c(=NC(=O)c4cnc(N)nc4)nc12)CCN3

>  <assay target>
624824-186-R-J2-PDC multicell spheroids, viability

>  <assigned label>
MET

$$$$

**Query** Confirm or reject: viability, T/C of CC1(C)CCC(CN2CCN(c3ccc(C(=O)NS(=O)(=O)c4ccc(NCC5CCOCC5)c([N+](=O)[O-])c4)c(Oc4cnc5[nH]ccc5c4)c3)CC2)=C(c2ccc(Cl)cc2)C1 + CC(Nc1ccc2c(c1)OCCn1cc(N3C(=O)OCC3C(F)F)nc1-2)C(N)=O lies strictly below 90%
**Result** NOT MET

---

For each entry below, report its viability, T/C value.
- Test system: 624824-186-R-J2-PDC multicell spheroids, viability
- experimental details: Anticancer human tumor 624824-186-R-J2-PDC cell line growth inhibition [PI3K];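 further: spheroids exposed to agents for 7 days before viability read; 100% = DMSO vehicle treated spheroids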
- assay context: second compound 0.1 µM; first compound 0.316 µM; stronger effect = lower value
Give bare numbers, in %.

Examples from the recorded data:
>  <compound>
Cn1nccc1Nc1nccc(-c2ccn(C(CO)c3ccc(Cl)c(F)c3)c(=O)c2)n1 (stereo not given) + CC(Nc1ncnc2nc[nH]c12)c1cc2cccc(Cl)c2c(=O)n1-c1ccccc1

>  <viability, T/C (%)>
78

$$$$
>  <compound>
CC1(C)CCC(CN2CCN(c3ccc(C(=O)NS(=O)(=O)c4ccc(NCC5CCOCC5)c([N+](=O)[O-])c4)c(Oc4cnc5[nH]ccc5c4)c3)CC2)=C(c2ccc(Cl)cc2)C1 + CC(Nc1ccc2c(c1)OCCn1cc(N3C(=O)OCC3C(F)F)nc1-2)C(N)=O

>  <viability, T/C (%)>
79.1

$$$$
>  <compound>
Cn1ncc(Cl)c1-c1cc(C(=O)NC(CN)Cc2cccc(F)c2)sc1Cl (stereo not given) + CC(Nc1ccc2c(c1)OCCn1cc(N3C(=O)OCC3C(F)F)nc1-2)C(N)=O

>  <viability, T/C (%)>
74.5

$$$$
>  <compound>
C#Cc1c(F)ccc2cc(O)cc(-c3ncc4c(N5CC6CCC(C5)N6)nc(OCC56CCCN5CC(F)C6)nc4c3F)c12 (stereo not given) + Cc1nc(NC(=O)N2CCCC2C(N)=O)sc1-c1ccnc(C(C)(C)C(F)(F)F)c1

>  <viability, T/C (%)>
73

$$$$

Reported viability, T/C ( CCN1CCN(Cc2ccc(Nc3ncc(F)c(-c4cc(F)c5nc(C)n(C(C)C)c5c4)n3)nc2)CC1 + COc1c(OCCCN2CCOCC2)ccc2c3n(c(=NC(=O)c4cnc(N)nc4)nc12)CCN3 ) = 68.2
